# measured on: T1, kinesin-4ΔN (human kinesin-4, aa 733-1232) (human, UniProt O95239 733-1232)
# T1 sequence (looked up): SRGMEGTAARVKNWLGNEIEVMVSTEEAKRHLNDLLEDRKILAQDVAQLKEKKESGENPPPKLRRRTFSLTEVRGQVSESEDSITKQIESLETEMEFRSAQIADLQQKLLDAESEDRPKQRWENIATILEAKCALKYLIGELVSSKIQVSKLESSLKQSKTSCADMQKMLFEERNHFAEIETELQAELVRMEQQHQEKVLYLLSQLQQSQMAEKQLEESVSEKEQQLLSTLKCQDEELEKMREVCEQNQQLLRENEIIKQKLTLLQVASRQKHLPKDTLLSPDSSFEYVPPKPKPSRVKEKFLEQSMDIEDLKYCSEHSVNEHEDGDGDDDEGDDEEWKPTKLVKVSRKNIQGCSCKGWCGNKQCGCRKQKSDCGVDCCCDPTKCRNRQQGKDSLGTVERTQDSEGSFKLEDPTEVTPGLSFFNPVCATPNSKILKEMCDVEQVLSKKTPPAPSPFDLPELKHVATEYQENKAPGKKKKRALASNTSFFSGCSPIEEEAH
# protocol details: pull-down
This section presents binders with their documented Kd values.
Reply with just the number (in nM).

Known results for binders:
PRC1NSΔC4 (human PRC1, aa 1-231) (domain or fragment, UniProt O43663 1-231, looked up) MRRSEVLAEESIVCLQKALNHLREIWELIGIPEDQRLQRTEVVKKHIKELLDMMIAEEESLKERLIKSISVCQKELNTLCSELHVEPFQEEGETTILQLEKDLRTQVELMRKQKKERKQELKLLQEQDQELCEILCMPHYDIDSASVPSLEELNQFRQHVTTLRETKASRREEFVSIKRQIILCMEALDHTPDTSFERDVVCEDEDAFCLSLENIATLQKLLRQLEMQKSQ | 300
PRC1NSΔC5 (human PRC1, aa 1-303) (domain or fragment, UniProt O43663 1-303, looked up) MRRSEVLAEESIVCLQKALNHLREIWELIGIPEDQRLQRTEVVKKHIKELLDMMIAEEESLKERLIKSISVCQKELNTLCSELHVEPFQEEGETTILQLEKDLRTQVELMRKQKKERKQELKLLQEQDQELCEILCMPHYDIDSASVPSLEELNQFRQHVTTLRETKASRREEFVSIKRQIILCMEALDHTPDTSFERDVVCEDEDAFCLSLENIATLQKLLRQLEMQKSQNEAVCEGLRTQIRELWDRLQIPEEEREAVATIMSGSKAKVRKALQLEVDRLEELKMQNMKKVIEAIRVELVQ | 300
PRC1NSΔC2 (human PRC1, aa 1-117) (domain or fragment, UniProt O43663 1-117, looked up) MRRSEVLAEESIVCLQKALNHLREIWELIGIPEDQRLQRTEVVKKHIKELLDMMIAEEESLKERLIKSISVCQKELNTLCSELHVEPFQEEGETTILQLEKDLRTQVELMRKQKKER | 2300

Please look at the following binder next.
Query :: Request the reported Kd associated with PRC1NSΔC3 (human PRC1, aa 1-168) (domain or fragment, UniProt O43663 1-168, looked up) MRRSEVLAEESIVCLQKALNHLREIWELIGIPEDQRLQRTEVVKKHIKELLDMMIAEEESLKERLIKSISVCQKELNTLCSELHVEPFQEEGETTILQLEKDLRTQVELMRKQKKERKQELKLLQEQDQELCEILCMPHYDIDSASVPSLEELNQFRQHVTTLRETKA
Result :: 1200
